METHOD DESCRIPTION: A qHTS for Small Molecule Inhibitors of Shiga Toxin; also: 0% is about no effect
CONDITION SET: Vero cells, Shiga toxin protein synthesis inhibition reporter; at 38.7 µM, hits give high values
Screen size: about 290,000 compounds; about 27,000 (9.3%) were called active. Shown is part of a subset that was picked to be rich in actives.
ENDPOINT: inhibition (%)
Quick reminder: number only, in %, skip the unit.

Noted for O=C(c1cccs1)N1CCN(C(=O)N2CCOCC2)CC1 : its inhibition reads -6.78

Noted for COC(=O)c1cccc([N+](=O)[O-])c1CS(=O)(=O)c1ccc(C)cc1 : its inhibition reads -10.2

Noted for Nc1nnnn1/N=C/c1cccs1 : its inhibition reads -9.54

Noted for COc1cccc(/C=N/Nc2ccc(Cl)nn2)c1 : its inhibition reads 25.9

Noted for Oc1cccc(/C=N/Nc2ccc(Cl)nn2)c1O : its inhibition reads 60.3

Noted for Cc1ccc(S(=O)(=O)NCC(=O)Nc2ccc3c(c2)OCCO3)cc1 : its inhibition reads -18.4

Noted for Cc1ccsc1/C=N/Nc1ccc(Cl)nn1 : its inhibition reads 17.1

###

METHOD DESCRIPTION: A qHTS for Small Molecule Inhibitors of Shiga Toxin; also: 0% is about no effect
CONDITION SET: Vero cells, Shiga toxin protein synthesis inhibition reporter; at 38.7 µM, hits give high values
Hit rate of the full screen: of about 290,000 compounds, about 27,000 (9.3%) were called active. This is one part of a sample in which actives are shown more often than they occur.
ENDPOINT: inhibition (%)
Quick reminder: number only, in %, skip the unit.

Noted for COC(=O)c1ccccc1NC(=O)c1ccc(C#N)cc1 : its inhibition reads 8.5

Noted for CCc1cccc(NC(=O)C2CCCN(S(=O)(=O)c3ccc4[nH]c(=O)ccc4c3)C2)c1 (stereo unspecified) : its inhibition reads -5.44

Noted for C=CCn1cc(Cl)cc(C(=O)Nc2ccccc2)c1=O : its inhibition reads 16.8

Noted for CS/C(=C\C(=O)c1ccco1)Nc1ccccc1Cl : its inhibition reads 53.1

Noted for O=c1c2cc(Br)ccc2nc(-c2cccc(Cl)c2)n1O : its inhibition reads 0.78

Noted for Cn1cc(CNC(=O)c2ccc(OC3CCN(Cc4ccccn4)CC3)cc2)cn1 : its inhibition reads 4.02

###

METHOD DESCRIPTION: A qHTS for Small Molecule Inhibitors of Shiga Toxin; also: 0% is about no effect
CONDITION SET: Vero cells, Shiga toxin protein synthesis inhibition reporter; at 38.7 µM, hits give high values
The campaign covered roughly 290,000 compounds. About 27,000 (9.3%) were called active. Only a selection was taken, and actives are over-represented in it overall.
ENDPOINT: inhibition (%)
Quick reminder: number only, in %, skip the unit.

Noted for CCC(=O)Nc1ccc2c(c1)nc(CCN1CCN(c3ccccn3)CC1)n2C : its inhibition reads -4.67

Noted for COc1ccc(C)cc1NC(=O)CN(C)S(=O)(=O)c1ccc2c(c1)n(C)c(=O)c(=O)n2C : its inhibition reads 3.45

Noted for COC(=O)c1c(NC(=O)c2ccc(S(=O)(=O)N3CCOCC3)cc2)sc2c1CCN(C(C)C)C2 : its inhibition reads -17.4

Noted for O=C(c1cc2ccccc2o1)N1CCN(Cc2ccccc2)CC1 : its inhibition reads 22.5

Noted for CCn1cc(C(=O)N2CC(C)CC(C)C2)c(=O)c2cc(S(=O)(=O)N3CCCC3)ccc21 (stereo not given) : its inhibition reads -9.23

###

METHOD DESCRIPTION: A qHTS for Small Molecule Inhibitors of Shiga Toxin; also: 0% is about no effect
CONDITION SET: Vero cells, Shiga toxin protein synthesis inhibition reporter; at 38.7 µM
Hit rate of the full screen: of about 290,000 compounds, about 27,000 (9.3%) were called active. Rule as the data show it: active = inhibition mostly above about 28% (no sharp cut-off); inactive = mostly below about 43%. This is one part of a sample in which actives are shown more often than they occur.
# output must be one of active, inactive

Request: How did this test come out for COc1ccccc1C(=O)CSc1cccc[n+]1[O-] ?
Result: inactive

Request: How did this test come out for O=C(CSc1cccc[n+]1[O-])c1ccc(-c2ccccc2)cc1 ?
Result: active

Request: How did this test come out for CCOc1ccc(C)cc1S(=O)(=O)NC1CCCCCC1 ?
Result: inactive

Request: How did this test come out for O=S(=O)(c1ccc(Cl)s1)N1CCC2(CC1)OCCO2 ?
Result: inactive

Request: How did this test come out for O=C(CSc1cccc[n+]1[O-])c1ccc(Cl)cc1 ?
Result: inactive

Request: How did this test come out for CN(Cc1ccccc1Cl)C(=O)C1CCC(=O)N(CCc2cccc(F)c2)C1 (stereo unspecified) ?
Result: inactive

###

METHOD DESCRIPTION: A qHTS for Small Molecule Inhibitors of Shiga Toxin; also: 0% is about no effect
CONDITION SET: Vero cells, Shiga toxin protein synthesis inhibition reporter; at 38.7 µM
In all, about 290,000 compounds went through this assay and about 27,000 (9.3%) were called active. Rule as the data show it: active = inhibition mostly above about 28% (no sharp cut-off); inactive = mostly below about 43%. The full list was thinned out, with actives kept by preference.
# output must be one of active, inactive

Request: How did this test come out for COc1ccc(/C=N/NS(=O)(=O)c2ccc(NC(C)=O)cc2)cc1 ?
Result: inactive

Request: How did this test come out for CN(C(=O)CSc1nnc(-c2c[nH]c3ccccc23)o1)C1CCS(=O)(=O)C1 (stereo unspecified) ?
Result: inactive

Request: How did this test come out for CCOC(OCC)OCC ?
Result: inactive

Request: How did this test come out for O=C(CSc1nnc(-c2c[nH]c3ccccc23)o1)c1ccccc1 ?
Result: active

Request: How did this test come out for COc1ccccc1NC(=O)c1cc(N2C(=O)C3C4CCC(C4)C3C2=O)ccc1Cl (stereo unspecified) ?
Result: inactive

Request: How did this test come out for CCC(=O)Nc1nc(C)c(C(=O)Nc2cccc(Cl)c2)s1 ?
Result: inactive

Request: How did this test come out for N#Cc1c(Cl)nc(-c2cccnc2)nc1-c1ccccc1 ?
Result: inactive

Request: How did this test come out for COc1ccc(/C=N/Nc2nc3ccccc3c(=O)[nH]2)cc1 ?
Result: active

Request: How did this test come out for COc1ccc(-c2nc(CS(=O)CC(=O)NCc3ccccc3)c(C)o2)cc1OC (stereo unspecified) ?
Result: inactive

Request: How did this test come out for CC(C)=N/N=C1/NC(=O)C(Cc2ccccc2)S1 (stereo unspecified) ?
Result: inactive

Request: How did this test come out for Cc1cccc(C(=O)N2CCCC(Nc3ccc(C(C)C)cc3)C2)n1 (stereo unspecified) ?
Result: inactive

###

METHOD DESCRIPTION: A qHTS for Small Molecule Inhibitors of Shiga Toxin; also: 0% is about no effect
CONDITION SET: Vero cells, Shiga toxin protein synthesis inhibition reporter; at 38.7 µM, hits give high values
In all, about 290,000 compounds went through this assay and about 27,000 (9.3%) were called active. For the sample, actives were picked, then their nearest neighbours and some compounds at random.
Exercise: state measured inhibition for each of the compounds provided.
Quick reminder: number only, in %, skip the unit.

Noted for CCOc1ccc(S(=O)(=O)N2CCC(c3ccccc3)CC2)cc1C(=O)O : its inhibition reads -1.98

Noted for Cc1cc(C)cc(Oc2c(C(F)(F)F)oc3cc(OCC(=O)O)ccc3c2=O)c1 : its inhibition reads -4.45

Noted for COc1cc(C(C)=O)ccc1OC(=O)CN1C(=O)c2ccccc2C1=O : its inhibition reads -4.18

Noted for O=C(CN1CCN(c2cccc(Cl)c2)CC1)Nc1ccc(S(=O)(=O)N2CCOCC2)cc1 : its inhibition reads -9.51

Noted for CCOc1ccccc1-c1nc(CN2CCC(C(=O)N3CCOCC3)CC2)c(C)o1 : its inhibition reads -7.77

Noted for COc1ccccc1-c1c(C)nn2c(C)c(C(C)=O)cnc12 : its inhibition reads 3.88

Noted for CC(=O)N1CC(=O)N(CC(=O)Nc2ccc(Br)cc2)C1=S : its inhibition reads -1.67

Noted for COc1ccccc1-c1sc2ccccc2c1-c1ccc(C(C)=O)cc1 : its inhibition reads 24.8

Noted for Cc1c(C)c(C)c(S(=O)(=O)N2CCC3(CC2)OCCO3)c(C)c1C : its inhibition reads -4.05

Noted for COc1ccc(C)cc1Nc1n[n+](-c2ccccc2)c(-c2cccc(Cl)c2Cl)s1 : its inhibition reads -3.92

###

METHOD DESCRIPTION: A qHTS for Small Molecule Inhibitors of Shiga Toxin; also: 0% is about no effect
CONDITION SET: Vero cells, Shiga toxin protein synthesis inhibition reporter; at 38.7 µM
Screen size: about 290,000 compounds; about 27,000 (9.3%) were called active. Rule as the data show it: active = inhibition mostly above about 28% (no sharp cut-off); inactive = mostly below about 43%. Shown is part of a subset that was picked to be rich in actives.
# output must be one of active, inactive

Request: How did this test come out for CCC(C)NCC(=O)Nc1ccc([N+](=O)[O-])cc1C(=O)Nc1ccccc1F (stereo not drawn) ?
Result: inactive

Request: How did this test come out for O=C(c1ccc(Cl)cc1)c1cnc(Nc2ccccc2)s1 ?
Result: inactive

Request: How did this test come out for Cc1c(NC(=O)Nc2cccc([N+](=O)[O-])c2)c(=O)n(-c2ccccc2)n1C ?
Result: inactive

Request: How did this test come out for O=C1NC(c2cccc(Cl)c2)Nc2ccccc21 (stereo not drawn) ?
Result: inactive

Request: How did this test come out for CCC(CC)c1nnc(NC(=O)C2CCN(C(=O)c3ccco3)CC2)s1 ?
Result: inactive

Request: How did this test come out for Cc1ccccc1N1CC(C(=O)Nc2ccc3c(c2)OCO3)CC1=O (stereo not drawn) ?
Result: inactive

Request: How did this test come out for COc1ccc(CNC(=O)C(C)NCc2ccccc2Cl)cc1 (stereo not drawn) ?
Result: inactive

Request: How did this test come out for CC(C)(C)C(=O)c1cnc(Nc2ccccc2)s1 ?
Result: active

Request: How did this test come out for O=C(CNC(=O)OCc1ccccc1)NC1CCCCNC1=O (stereo not drawn) ?
Result: inactive

Request: How did this test come out for CCOC(=O)N1CCC(N2Cc3cccc(C(=O)Nc4c(C)cccc4CC)c3C2=O)CC1 ?
Result: inactive

Request: How did this test come out for COc1ccc(-c2noc(CNC(=O)C(C)Oc3ccccc3)n2)cc1 (stereo not drawn) ?
Result: inactive

Request: How did this test come out for CC1CCN(S(=O)(=O)c2ccc3[nH]c(=O)ccc3c2)CC1 ?
Result: inactive

Request: How did this test come out for Fc1ccc(CSc2nnc(-c3cc4c(s3)-c3ccccc3CC4)o2)cc1 ?
Result: inactive

Request: How did this test come out for S=c1[nH]nc(Nc2ccccc2)s1 ?
Result: inactive

Request: How did this test come out for Cc1ccc(NC(=O)CN(C)C(=O)c2ccc(Br)o2)cc1 ?
Result: inactive

Request: How did this test come out for O=C(CSc1nnc(-c2ccco2)n1Cc1ccccc1)NC(=O)NCc1ccco1 ?
Result: inactive

Request: How did this test come out for O=[N+]([O-])c1cccc(/C([O-])=C(/C(=S)Nc2ccccc2F)[n+]2ccccc2)c1 ?
Result: active

Request: How did this test come out for Cc1cc(/C=C2/SC(=O)N(CC(=O)N3CCCC3)C2=O)c(C)n1C ?
Result: inactive

Request: How did this test come out for Cc1ccc(/C([O-])=C(/C(=S)NCc2ccco2)[n+]2ccccc2)cc1[N+](=O)[O-] ?
Result: inactive

Request: How did this test come out for COc1cccc(C2Nc3cccc4cccc(c34)N2)c1 ?
Result: inactive

Request: How did this test come out for c1ccc(CSc2nnc(-c3ccco3)n2Cc2ccccc2)cc1 ?
Result: active

Request: How did this test come out for Cc1nnc(SCC(=O)Nc2ccc(S(=O)(=O)Nc3ccc(Cl)nn3)cc2)s1 ?
Result: inactive

Request: How did this test come out for CC(C)(C)c1ccc(C(=O)CSc2ncn[nH]2)cc1 ?
Result: active

Each recorded value in this set is attributed to PubChem BioAssay AID2315.
